Kindly state Radioactivity distribution Stomach for each of the entries shown.
assay: In vivo kinetics experiment (radioactivity distribution); parameters: species or system Wistar male rat; settings: 10 min after administration; rat i.v.; mean ± SD
Give bare numbers, in % ID/g.

These recorded examples may help you get a feel for the data.
FCCn1c(-c2cncc(Cn3cncc3[123I])c2)nc2cc(F)c(Cl)cc21 [[^123I] 610] : 0.66
COC(=O)c1cncn1[C@H](C)c1ccc(I)cc1 [[^123I] IMTO, (R)-[^123I]iodometomidate, reference compound] : 0.52
CC(C)n1c(-c2cncc(Cn3ccnc3)c2)nc2ccc([123I])cc21 [[^123I] 606] : 0.75

List the reported Radioactivity distribution Stomach of each molecule below.
1. FCCn1c(-c2cncc(Cn3ccnc3)c2)nc2ccc([123I])cc21 [[^123I] 604]
2. Cn1c(-c2cncc(Cn3ccnc3)c2)nc2ccc([123I])cc21 [[^123I] 607]
3. Fc1cc2nc(-c3cncc(Cn4ccnc4)c3)n(Cc3ccc([123I])cc3)c2cc1Cl [[^123I] 605]
4. COc1cc([123I])cc2c1nc(-c1cncc(Cn3ccnc3)c1)n2C1CC1 [[^123I] 609]
5. CCn1c(-c2cncc(Cn3ccnc3)c2)nc2ccc([123I])cc21 [[^123I] 608]

-- reply
1. 0.66
2. 0.88
3. 0.80
4. 0.65
5. 0.53

----------
Kindly state Radioactivity distribution Whole brain for each of the entries shown.
test: In vivo kinetics experiment (radioactivity distribution); design: species or system Wistar male rat; details: 60 min after administration; rat i.v.; mean ± SD
Give bare numbers, in % ID/g.

These recorded examples may help you get a feel for the data.
CC(C)n1c(-c2cncc(Cn3ccnc3)c2)nc2ccc([123I])cc21 [[^123I] 606] : 0.03
Cn1c(-c2cncc(Cn3ccnc3)c2)nc2ccc([123I])cc21 [[^123I] 607] : 0.02
Fc1cc2nc(-c3cncc(Cn4ccnc4)c3)n(Cc3ccc([123I])cc3)c2cc1Cl [[^123I] 605] : 0.02

// below: Radioactivity distribution Whole brain requested for another compound
-- ask So what's the measured Radioactivity distribution Whole brain for this one? COc1cc([123I])cc2c1nc(-c1cncc(Cn3ccnc3)c1)n2C1CC1 [[^123I] 609]
-- reply 0.01

----------
test: In vivo kinetics experiment (radioactivity distribution); design: species or system Wistar male rat; details: rat, caudal vein, 30 min after administration
Kindly state Radioactivity distribution Adrenal gland for each of the entries shown.
Give bare numbers, in % ID/g.

These recorded examples may help you get a feel for the data.
Fc1cc2nc(-c3cncc(Cn4ccnc4)c3)n(CCC[18F])c2cc1Cl [[^18F] 500] : 20.88
Fc1cc2nc(-c3cncc(Cn4ccnc4)c3)n(CC[18F])c2cc1Br [[^18F] 200] : 22.61
Fc1cc2nc(-c3cncc(Cn4ccnc4)c3)n(CC[18F])c2cc1Cl [[^18F] 100] : 19.61
FCCn1c(-c2cncc(Cn3ccnc3)c2)nc2cc(F)c([123I])cc21 [[^123I] 400] : 16.93
[123I]c1ccc2nc(-c3cncc(Cn4ccnc4)c3)n(C3CC3)c2c1 [[^123I] 602] : 16.93

// below: Radioactivity distribution Adrenal gland requested for another compound
-- ask So what's the measured Radioactivity distribution Adrenal gland for this one? [123I]c1ccc2nc(-c3cncc(Cn4ccnn4)c3)n(C3CC3)c2c1 [[^123I] 603]
-- reply 15.46

----------
assay: In vivo kinetics experiment (radioactivity distribution); set-up: species or system Wistar male rat; details: rat, caudal vein, 10 min after administration
So basically: Radioactivity distribution Adrenal gland at 10 % ID/g or higher? That is true (1). Lower than 10 % ID/g? That is false (0).

Fc1cc2nc(-c3cncc(Cn4ccnc4)c3)n(CC[18F])c2cc1Br [[^18F] 200] : true (1)
[123I]c1ccc2nc(-c3cncc(Cn4ccnc4)c3)n(C3CC3)c2c1 [[^123I] 602] : false (0)
Fc1cc2nc(-c3cncc(Cn4ccnc4)c3)n(CCC[18F])c2cc1Cl [[^18F] 500] : true (1)

Okay, now this molecule:
-- ask Hello, I need to know if FCCn1c(-c2cncc(Cn3ccnc3)c2)nc2cc(F)c([123I])cc21 [[^123I] 400] has measured Radioactivity distribution Adrenal gland not below 10 % ID/g. Thanks!
-- reply false (0)

----------
test: In vivo kinetics experiment (radioactivity distribution); set-up: species or system Wistar male rat; settings: rat, caudal vein, 60 min after administration
Threshold check on Adrenal gland/fat ratio of radioactivity accumulation: strictly below 400 is YES; on or above 400 is NO.

Below, 3 compounds whose answers are already recorded.
FCCn1c(-c2cncc(Cn3ccnc3)c2)nc2cc(F)c([123I])cc21 [[^123I] 400] : YES
Fc1cc2nc(-c3cncc(Cn4ccnc4)c3)n(CCC[18F])c2cc1Cl [[^18F] 500] : YES
[123I]c1ccc2nc(-c3cncc(Cn4ccnc4)c3)n(C3CC3)c2c1 [[^123I] 602] : YES

-- ask Adrenal gland/fat ratio of radioactivity accumulation under 400? Item: Fc1cc2nc(-c3cncc(Cn4ccnc4)c3)n(CC[18F])c2cc1Br [[^18F] 200]
-- reply NO

-- ask # repeat for [123I]c1ccc2nc(-c3cncc(Cn4ccnn4)c3)n(C3CC3)c2c1 [[^123I] 603]
-- reply YES

----------
Experiment: In vivo kinetics experiment (radioactivity distribution)
Design: species or system Wistar male rat
Conditions: 30 min after administration; rat i.v.; mean ± SD
Protocol: Each of Compounds [^18F] 100, [^18F] 200, [^123I] 400, [^18F] 500, and [^123I] 601 to 610 obtained by the methods described in Examples 2, 4, 7, 9, 11, 13, 15, 17, 19, 21, 23, 25, 27, and 29, or [^123I] […] From the thus sacrificed rat, blood and organs (heart, lung, stomach, liver, spleen, small intestine, large intestine, kidney, bladder (including urine), muscle (lower limbs), brain, adrenal gland, testis, fat, femur, or thyroid gland) were excised, and the weights thereof were then measured. […]
endpointName: Radioactivity distribution Blood (% ID/g)
Answers are plain numbers, in % ID/g.

These recorded examples may help you get a feel for the data.
CC(C)n1c(-c2cncc(Cn3ccnc3)c2)nc2ccc([123I])cc21 [[^123I] 606] : 0.14
COc1cc([123I])cc2c1nc(-c1cncc(Cn3ccnc3)c1)n2C1CC1 [[^123I] 609] : 0.14
Fc1cc2nc(-c3cncc(Cn4ccnc4)c3)n(Cc3ccc([123I])cc3)c2cc1Cl [[^123I] 605] : 0.12
FCCn1c(-c2cncc(Cn3cncc3[123I])c2)nc2cc(F)c(Cl)cc21 [[^123I] 610] : 0.66
COC(=O)c1cncn1[C@H](C)c1ccc(I)cc1 [[^123I] IMTO, (R)-[^123I]iodometomidate, reference compound] : 2.55
FCCn1c(-c2cncc(Cn3ccnc3)c2)nc2ccc([123I])cc21 [[^123I] 604] : 0.10
Cn1c(-c2cncc(Cn3ccnc3)c2)nc2ccc([123I])cc21 [[^123I] 607] : 0.09

// below: Radioactivity distribution Blood requested for another compound
-- ask So what's the measured Radioactivity distribution Blood for this one? CCn1c(-c2cncc(Cn3ccnc3)c2)nc2ccc([123I])cc21 [[^123I] 608]
-- reply 0.06

----------
Kindly state Radioactivity distribution Whole brain for each of the entries shown.
assay: In vivo kinetics experiment (radioactivity distribution); design: species or system Wistar male rat; conditions: rat, caudal vein, 10 min after administration
Numbers only, in % ID/g.

Fc1cc2nc(-c3cncc(Cn4ccnc4)c3)n(CC[18F])c2cc1Cl [[^18F] 100] : 0.01
Fc1cc2nc(-c3cncc(Cn4ccnc4)c3)n(CCC[18F])c2cc1Cl [[^18F] 500] : 0.02
Fc1cc2nc(-c3cncc(Cn4ccnc4)c3)n(CC[18F])c2cc1Br [[^18F] 200] : 0.02
FCCn1c(-c2cncc(Cn3ccnc3)c2)nc2cc(F)c([123I])cc21 [[^123I] 400] : 0.02
[123I]c1ccc2nc(-c3cncc(Cn4ccnc4)c3)n(C3CC3)c2c1 [[^123I] 602] : 0.02

// below: Radioactivity distribution Whole brain requested for another molecule
-- ask So what's the measured Radioactivity distribution Whole brain for this one? [123I]c1ccc2nc(-c3cncc(Cn4ccnn4)c3)n(C3CC3)c2c1 [[^123I] 603]
-- reply 0.01

----------
Kindly state Radioactivity distribution Heart for each of the entries shown.
experiment: In vivo kinetics experiment (radioactivity distribution); parameters: species or system Wistar male rat; details: 60 min after administration; rat i.v.; mean ± SD
Answers are plain numbers, in % ID/g.

These recorded examples may help you get a feel for the data.
COC(=O)c1cncn1[C@H](C)c1ccc(I)cc1 [[^123I] IMTO, (R)-[^123I]iodometomidate, reference compound] : 0.77
CCn1c(-c2cncc(Cn3ccnc3)c2)nc2ccc([123I])cc21 [[^123I] 608] : 0.72
Fc1cc2nc(-c3cncc(Cn4ccnc4)c3)n(Cc3ccc([123I])cc3)c2cc1Cl [[^123I] 605] : 0.35
Cn1c(-c2cncc(Cn3ccnc3)c2)nc2ccc([123I])cc21 [[^123I] 607] : 0.43
COc1cc([123I])cc2c1nc(-c1cncc(Cn3ccnc3)c1)n2C1CC1 [[^123I] 609] : 0.33

List the reported Radioactivity distribution Heart of each molecule below.
1. FCCn1c(-c2cncc(Cn3ccnc3)c2)nc2ccc([123I])cc21 [[^123I] 604]
2. FCCn1c(-c2cncc(Cn3cncc3[123I])c2)nc2cc(F)c(Cl)cc21 [[^123I] 610]

-- reply
0.56
0.28

-- ask So what's the measured Radioactivity distribution Heart for this one? CC(C)n1c(-c2cncc(Cn3ccnc3)c2)nc2ccc([123I])cc21 [[^123I] 606]
-- reply 0.40
